For reference, IC50 measured on BCL-2 (binding to BAK peptide) (Homo sapiens, UniProt P10415):

### Prompt What does the data say about its IC50? Entry: CCCCC(CCCC)C(=O)c1cc(C)n(-c2ccc(NC(=O)COc3cccc4ccccc34)cc2C(=O)N2Cc3ccccc3C[C@H]2CO)n1 [Example 110]
### Response 250 to 272 nM

In the following, a different compound is considered.
### Prompt Report IC50 for CCCCN(CCCC)C(=O)c1cc(C)n(-c2ccc(NC(=O)c3nn(-c4ccccc4)c(=O)cc3O)cc2C(=O)N2Cc3ccccc3C[C@H]2CO)n1 [Example 94] please.
### Response 30.7 to 31.1 nM
